// data source = ChEMBL document CHEMBL1149970

Assay: Compound was measured for binding rate for human serum at a carbapenem concentration of 10 ug/mL
Type: ADME
Details: read-out: Protein binding (converted)
We begin with a simple list: items and their reported fraction unbound at 10 ug/mL.
Please respond with just the number, no unit label.

Use these answered entries as a reference point.
C[C@@H](O)[C@H]1C(=O)N2C(C(=O)O)=C(SC(=S)N3CCCC3)[C@H](C)[C@H]12    0.06
C[C@@H](O)[C@H]1C(=O)N2C(C(=O)O)=C(SC(=S)N3CCCC(O)CC3)[C@H](C)[C@H]12 (stereo partly specified)    0.15
C[C@@H](O)[C@H]1C(=O)N2C(C(=O)O)=C(SC(=S)N(C)CCO)[C@H](C)[C@H]12    0.53
C[C@@H](O)[C@H]1C(=O)N2C(C(=O)O)=C(SC(=S)N(C)C)[C@H](C)[C@H]12    0.12
C[C@@H](O)[C@H]1C(=O)N2C(C(=O)O)=C(SC(=S)N(C)Cc3cccc4ccccc34)[C@H](C)[C@H]12    0.01

stdin: Could you share which fraction unbound at 10 ug/mL value was measured for `C[C@@H](O)[C@H]1C(=O)N2C(C(=O)[O-])=C(SC(=S)N3CC[N+](C)(Cc4ccccc4)CC3)[C@H](C)[C@H]12` ?
stdout: 0.4
